readout type: melting point

COCC(=O)Nc1cccc(C2(C3CCN(C(=O)c4ccc(C(=O)OC)cc4)CC3)N=C(N)N(C)C2=O)c1 (centres undefined) = 161 to 163 °C
Nc1ccccc1Oc1ccccc1-c1ccccc1Oc1ccccc1N = 175 °C
COC(=O)NC1CCCCC1 = 73 to 74 °C
Nc1cc(Cl)c(Cl)c(Cl)c1N = 109 to 111 °C

Given the compound CCOC(=O)Nc1nc(-c2ccccc2)c(-c2nc3ccccc3c(=O)n2-c2cccc(C)c2)s1 , what is its reported melting point? 261 to 263 °C

Next entry: COc1ccc(-n2nc(Sc3ccc([N+](=O)[O-])cc3)c(C)c(C#N)c2=O)cc1 258 to 260 °C

Next entry: COc1cccc(CNC(=O)c2nc3ccc(-c4nnn[nH]4)cc3c(=O)[nH]2)c1 258 to 260 °C

Next entry: Oc1nc(-c2ccc(F)cc2)c(CCN2CCC(=Cc3cccc(F)c3)CC2)s1 140 to 142 °C

Next entry: Cc1c(N2CC[C@@H](O)[C@H](C)C2)c(F)cc2c(=O)c(C(=O)O)cn(C3CC3)c12 (relative stereo) 206 to 210 °C

====

Reported melting point values follow for various compounds

Solved cases below.
CONC(=N)c1ccc(-c2ccc(-c3ccc(C(=N)NOC)o3)cc2)cc1 = 194 to 196 °C
Cc1cccc(Nc2ncnc3ccc(OCCBr)cc23)c1 = 129 to 135 °C
Cc1cccc(-c2nc(CCOc3ccc(CCCC4OC(=O)NC4=O)cc3)c(C)o2)c1 (stereo not given) = 149 to 150 °C
COC(=O)c1cccc([N+](=O)[O-])c1CS(N)(=O)=O = 119 to 123 °C

Given the compound Cc1ccc(N2C(=O)C(O)=C(C(=O)c3ccc(OC(F)(F)F)cc3)C2c2ccc(Cn3cnnn3)cc2)nn1 (stereo not given) , what is its reported melting point? > 300 °C

====

Reported melting point values follow for various compounds

Solved cases below.
CCOC(=O)N1CCN(c2ccc(C3=NNC(=O)CC3C)cc2F)CC1 (stereo not given) = 193 to 194 °C
N#CN=C(Nc1ccccc1)Nc1ccc(C#N)cc1O = 270 to 271 °C
Cc1cc(OCc2ccc(-c3ccccc3-c3nnn(C(c4ccccc4)(c4ccccc4)c4ccccc4)n3)cc2)c(C(=O)c2ccccc2)c(C)n1 = 84 to 91 °C
Oc1ccc(-c2ccc3c(Br)c(O)ccc3c2)cc1 = 208 to 210 °C
CCCCc1nc(SC)c(C(=O)OCC)n1Cc1ccc(-c2ccc(S(=O)(=O)NC#N)cc2C)cc1 = 211 °C
CCOC(=O)NN=C(c1ccc(Cl)cc1)c1ccc(OS(=O)(=O)c2ccc([N+](=O)[O-])cc2)cc1 = 134 to 138 °C
CCCCCCCCCCCCCCCCCCOC(=O)N(N)C(=O)c1cc(O)ccc1O = 163 °C
CSc1nn(C(=O)NC(C)CCl)c(=O)n1N (stereo not given) = 136 °C
O=c1ccn(C(OC2CCCCO2)c2ccccn2)cc1 (stereo not given) = 173 to 176 °C
CCOc1ccc2[nH]c(C)cc2c1O = 77 to 78 °C

Given the compound C=CCC(c1c(Cl)c(Cl)cc2[nH]c(=O)c(=O)[nH]c12)S(C)(=O)=O (stereo not given) , what is its reported melting point? 270 to 272 °C

Next entry: CC1=NCC2CN=C(c3ccccc3F)c3cc(Cl)ccc3N12 (stereo not given) 142 to 144 °C

Next entry: CCOC(=O)c1nn(-c2ccc(C)cc2)nc1-c1ccccc1 74 to 75 °C

Next entry: Cc1cc(N)n(-c2ccc(Cl)nn2)n1 148 to 150 °C

Next entry: CCCCCCCCc1ccc(C(=O)Cc2cccc(C#N)c2)cc1 59 to 64 °C

Next entry: c1ccc(C2CN(CCc3ccccn3)Cc3c2[nH]c2ccccc32)cc1 (stereo not given) 190 to 192 °C

Next entry: CC(C(=O)O)c1ccc(-c2ccc(F)cc2)c(Br)c1 (stereo not given) 129 to 131 °C

====

Reported melting point values follow for various molecules

CC1=CC(O)C(OC(=O)C=Cc2ccc(N)cc2)C(C)(C)CC1=O (stereo unspecified) = 49 to 50 °C

Given the molecule CNC(=O)c1c(SC)c2cc(OC)ccc2n1C , what is its reported melting point? 137 to 139 °C

Next entry: COc1ccccc1CCc1c(CO)ccc(OC)c1OC 108 to 109 °C

Next entry: Nc1c([N+](=O)[O-])c(C(F)(F)F)nn1-c1c(Cl)cc(C(F)(F)F)cc1Cl 214 to 215 °C

Next entry: Oc1ccc2c(c1)C(c1ccc(OCCN3CCCCC3)cc1)c1c-2ccc2ccccc12 (stereo unspecified) 180 to 181 °C

Next entry: NNN=CN(N)CC(=O)O 148 to 149 °C

====

Reported melting point values follow for various compounds

Given the compound CCN(CC)CC1CCCCN1CCCNC(=O)N1c2ccccc2C(=O)Nc2cccnc21 (stereo not given) , what is its reported melting point? 160 to 161 °C

Next entry: CN1c2ccncc2NC(c2ccccc2)c2cccn21 (stereo not given) 200 to 203 °C

Next entry: N#Cc1ccc(C(F)(F)F)cc1Sc1ccccc1 51 °C

Next entry: COc1cccc2c(Cc3nc(-c4ccccc4)co3)coc12 101 to 103 °C

Next entry: COC(=O)c1ccc(NC(=O)c2cc(C(C)C)c(C(C)C)o2)cc1O 156 to 157 °C

====

Reported melting point values follow for various molecules
Note: unit °C is implicit; provide only the numeric part.

Solved cases below.
CCOC(=O)c1c(N2CCN(C(=O)c3ccco3)CC2)c2cc(F)cnc2n(Cc2cccc(F)c2)c1=O = 121
O=C1NC(N2CCCCCC2)=N/C1=C\c1c[nH]c2ncc(-c3ccccc3)cc12 = 302
COC(=O)COc1cccc2c(CCOS(C)(=O)=O)coc12 = 111

Given the molecule CSCCC(NCc1cc(Br)cc(Br)c1N)C(=O)O (stereo not given) , what is its reported melting point? 212

====

Reported melting point values follow for various compounds

CCOC(CNN)OCC = 126 to 127 °C
COc1ccc(-c2cc3cc(OC)cc(C(=O)O)c3o2)cc1 = 218 to 220 °C
Cc1ccc2c(c1F)N(C1CC1)C=NS2(=O)=O = 189 to 192 °C
CCCNc1onc2c1c(=O)n(C)c(=O)n2C = 164 to 166 °C
c1ccc(Cc2nc(-c3ccncc3)cs2)cc1 = 88 to 89 °C

Given the compound C=CCNc1ccc(N(CC=C)CC=C)cc1[N+](=O)[O-] , what is its reported melting point? 131 to 140 °C

Next entry: Cc1cccc2c(=O)n(CCCN3CC=C(c4ccc(Cl)cc4)CC3)c(=O)[nH]c12 215 to 217 °C

====

Reported melting point values follow for various compounds

Given the compound CC(=O)Nc1ccc2c(c1)Cc1c(-c3ccccc3)n[nH]c1-2 , what is its reported melting point? 275 to 276 °C

Next entry: CC(C)NCC(O)COc1ccc(CCOC2CCCC2)cc1 (stereo not given) 66 °C

Next entry: CCCCCCCCCCCCN1CN=C(NC(=O)Nc2c(C(C)C)cccc2C(C)C)N1 128 to 140 °C

Next entry: CC(=O)N(C)CC(c1ccc(Cl)cc1)c1ccc(Cl)cc1 103 to 104 °C

Next entry: CCOC(=O)c1c(S(C)(=O)=O)n(C2CC2)c2c(OC)c(F)c(F)cc2c1=O 177 to 178 °C

Next entry: COc1cc(C(=O)c2c(N)sc3c2CCN(C(=O)c2ccccc2)C3)ccc1OC(C)C 158 to 160 °C

Next entry: Nc1nc(Sc2ccc(F)cc2)cc(-c2ccccc2)n1 218 to 220 °C

Next entry: CNc1nc2c(C)cccc2c2c1CCN2c1ccccc1C 165 to 167 °C

Next entry: Cn1c(-c2ccc(-c3ccccn3)cc2)c(C(=O)N2CCC(OCC(=O)O)CC2)c(=O)n1-c1ccc(C(=N)N)cc1 238 to 249 °C

Next entry: CN(C)c1ccc2cc(-c3ccn4ccnc4c3C#N)ccc2c1 268 to 269 °C

Next entry: O=C(O)c1ccccc1Oc1ccc(Br)cc1[N+](=O)[O-] 136 to 138 °C

Next entry: CN(C)C(=O)c1ccccc1Sc1c[nH]c2ccccc12 194 to 196 °C

Next entry: CCN(CC)CCNC(=O)c1ccc([N+](=O)[O-])cc1OC 59.3 °C

Next entry: c1ccc(-c2c[nH]c3ccccc23)cc1 148 to 149 °C

Next entry: CCOc1ccc(S(=O)(=O)N2CCN(C)CC2)cc1C(=O)OC 110 to 111 °C

Next entry: Nc1ccc2c(c1)CN(Cc1ccccc1)C2 110 to 115 °C

Next entry: CCCN(CCC)C1Cc2cccc3[nH]c(=O)n(c23)C1 (stereo not given) 190 to 192 °C

Next entry: O=C(O)c1ccc(C2=NOC(c3cc(Cl)cc(Cl)c3)(C(F)(F)F)C2)cc1 (stereo not given) 237 to 240 °C

Next entry: CCOC(=O)C1(S(=O)(=O)c2ccc(OCc3ccccc3)cc2)CCN(Cc2ccccc2)CC1 89 °C

Next entry: COc1cccc(CNC(=O)c2cc3c(=O)n(CCOc4ccc(Br)cc4)c(=O)n(C)c3s2)c1 165 to 167 °C

Where do the numbers come from? From a melting point compilation (Tetko et al.; mined from patent text by program, amines drawn as free bases though some values may be those of a salt).
